Tested on: GBM8 cells
Assay: GBM8 viability assay (Cell Titer Glo luminescence)
Type: cell-based
Details: 72 h; human glioblastoma neurosphere cells GBM8, 3 days incubation at 37° C., inhibition of cell growth by Cell Titer Glo luminescence; read-out: FBM8 (IC50)
Procedure: Cell culture medium was prepared from a NSA proliferation kit (Neurocult) and NeuroCult supplements (Stemcell Tech Cat. #05751) and treated with 20 μL of 10 μg/mL rh EGF, 10 μL of 10 μg/mL rh bFGF and 10 μL of 0.2% Heparin. […] After 10 minutes luminescence was recorded using a Tecan Safire2 reader. Reduction in luminescence compared to DMSO only control wells was used to determine the percentage inhibition of cell growth. […]
Measured IC50, listed per entry.
MEASUREMENT NAME: IC50

COMPOUND: Cc1cc(Oc2cccnc2)nc(NC(=N)Nc2ccc(Cl)c(Cl)c2)n1 [Compound 13]
VALUE REPORTED: > 30 µM

COMPOUND: CCN1CCC(Oc2cc(C)nc(NC(=N)Nc3ccc(Cl)c(Cl)c3)n2)CC1 [Compound 25]
VALUE REPORTED: 10 to 30 µM

COMPOUND: Cc1cc(OC2CCCNC2)nc(NC(=N)Nc2ccc(Cl)c(Cl)c2)n1 (centres unmarked) [Compound 17]
VALUE REPORTED: < 10 µM

COMPOUND: Cc1cc(N[C@@H]2CCCNC2)nc(NC(=N)Nc2ccc(Cl)c(Cl)c2)n1 [Compound 11]
VALUE REPORTED: < 10 µM

COMPOUND: CCN1CCCC(Nc2cc(C)nc(NC(=N)N(C)c3ccc(Cl)c(Cl)c3)n2)C1 (centres unmarked) [Compound 21]
VALUE REPORTED: > 30 µM

====

Catalogue of IC50 readings, one per entry.
Test system: GBM8 cells
Assay: GBM8 viability assay (Cell Titer Glo luminescence)
Assay type: cell-based
Conditions: 72 h; human glioblastoma neurosphere cells GBM8, 3 days incubation at 37° C., inhibition of cell growth by Cell Titer Glo luminescence; read-out: FBM8 (IC50)
Procedure: Cell culture medium was prepared from a NSA proliferation kit (Neurocult) and NeuroCult supplements (Stemcell Tech Cat. #05751) and treated with 20 μL of 10 μg/mL rh EGF, 10 μL of 10 μg/mL rh bFGF and 10 μL of 0.2% Heparin. […] After 10 minutes luminescence was recorded using a Tecan Safire2 reader. Reduction in luminescence compared to DMSO only control wells was used to determine the percentage inhibition of cell growth. […]
MEASUREMENT NAME: IC50

COMPOUND: CCN1CCC[C@@H](Nc2cc(C)nc(NC(=N)Nc3ccc(Cl)c(Cl)c3)n2)C1
ASSAY SYSTEM: GBM8 cells
MEASUREMENT NAME: IC50
VALUE REPORTED: < 10 µM

COMPOUND: Cc1cc(/N=C(/Nc2ccc(Cl)c(Cl)c2)N(C)C)nc(NCCCN(C)C)c1
ASSAY SYSTEM: GBM8 cells
MEASUREMENT NAME: IC50
VALUE REPORTED: > 30 µM

COMPOUND: CCN1CCC[C@H](Nc2cc(C)nc(NC(=N)Nc3ccc(Cl)c(Cl)c3)n2)C1
ASSAY SYSTEM: GBM8 cells
MEASUREMENT NAME: IC50
VALUE REPORTED: < 10 µM

COMPOUND: Cc1cc(Oc2ccncc2)nc(NC(=N)Nc2ccc(Cl)c(Cl)c2)n1
ASSAY SYSTEM: GBM8 cells
MEASUREMENT NAME: IC50
VALUE REPORTED: > 30 µM

COMPOUND: Cc1cc(N2CCOCC2)nc(NC(=N)Nc2ccc(Cl)c(Cl)c2)n1
ASSAY SYSTEM: GBM8 cells
MEASUREMENT NAME: IC50
VALUE REPORTED: < 10 µM

COMPOUND: Cc1cc(NCCCN(C)C)nc(N/C(=N/C#N)Nc2ccc(Cl)c(Cl)c2)n1
ASSAY SYSTEM: GBM8 cells
MEASUREMENT NAME: IC50
VALUE REPORTED: < 10 µM

COMPOUND: C/N=C(\Nc1ccc(Cl)c(Cl)c1)Nc1nc(C)cc(NCCCN(C)C)n1
ASSAY SYSTEM: GBM8 cells
MEASUREMENT NAME: IC50
VALUE REPORTED: > 30 µM

COMPOUND: Cc1cc(N2CCN(C)CC2)nc(NC(=N)Nc2ccc(Cl)c(Cl)c2)n1
ASSAY SYSTEM: GBM8 cells
MEASUREMENT NAME: IC50
VALUE REPORTED: < 10 µM

COMPOUND: Cc1cc(NC2CCCCC2)nc(NC(=N)Nc2ccc(Cl)c(Cl)c2)n1
ASSAY SYSTEM: GBM8 cells
MEASUREMENT NAME: IC50
VALUE REPORTED: < 10 µM

COMPOUND: CCN1CCC(Nc2cc(C)nc(NC(=N)Nc3ccc(Cl)c(Cl)c3)n2)CC1
ASSAY SYSTEM: GBM8 cells
MEASUREMENT NAME: IC50
VALUE REPORTED: < 10 µM

COMPOUND: Cc1cc(Nc2cccnc2)nc(NC(=N)Nc2ccc(Cl)c(Cl)c2)n1
ASSAY SYSTEM: GBM8 cells
MEASUREMENT NAME: IC50
VALUE REPORTED: < 10 µM

COMPOUND: Cc1cc(NC2CCNCC2)nc(NC(=N)Nc2ccc(Cl)c(Cl)c2)n1
ASSAY SYSTEM: GBM8 cells
MEASUREMENT NAME: IC50
VALUE REPORTED: > 30 µM

COMPOUND: CCN1CCCC(Nc2cc(C)nc(NC(=N)Nc3ccc(Cl)c(Cl)c3)n2)C1 (racemic)
ASSAY SYSTEM: GBM8 cells
MEASUREMENT NAME: IC50
VALUE REPORTED: < 10 µM

COMPOUND: Cc1cc(N(C)C)nc(NC(=N)Nc2ccc(Cl)c(Cl)c2)n1
ASSAY SYSTEM: GBM8 cells
MEASUREMENT NAME: IC50
VALUE REPORTED: < 10 µM

COMPOUND: Cc1cc(NC2CCOCC2)nc(NC(=N)Nc2ccc(Cl)c(Cl)c2)n1
ASSAY SYSTEM: GBM8 cells
MEASUREMENT NAME: IC50
VALUE REPORTED: < 10 µM

COMPOUND: C/N=C(\Nc1ccc(Cl)c(Cl)c1)Nc1cc(C)cc(NCCCN(C)C)n1
ASSAY SYSTEM: GBM8 cells
MEASUREMENT NAME: IC50
VALUE REPORTED: 10 to 30 µM

COMPOUND: Cc1cc(NCCCN(C)C)nc(NC(=S)Nc2ccc(Cl)c(Cl)c2)n1 [Compound 31a]
ASSAY SYSTEM: GBM8 cells
MEASUREMENT NAME: IC50
VALUE REPORTED: < 10 µM

COMPOUND: Cc1cc(NCCCN(C)C)nc(/N=C(/Nc2ccc(Cl)c(Cl)c2)N(C)C)n1
ASSAY SYSTEM: GBM8 cells
MEASUREMENT NAME: IC50
VALUE REPORTED: > 30 µM

COMPOUND: Cc1cc(N[C@H]2CCCNC2)nc(NC(=N)Nc2ccc(Cl)c(Cl)c2)n1
ASSAY SYSTEM: GBM8 cells
MEASUREMENT NAME: IC50
VALUE REPORTED: < 10 µM
